The measurements presented in this section are drawn from patent US12050224B2.

# system-under-test: bovine serum albumin (BSA) (Bos taurus)
# Sequence (P02769 25-607): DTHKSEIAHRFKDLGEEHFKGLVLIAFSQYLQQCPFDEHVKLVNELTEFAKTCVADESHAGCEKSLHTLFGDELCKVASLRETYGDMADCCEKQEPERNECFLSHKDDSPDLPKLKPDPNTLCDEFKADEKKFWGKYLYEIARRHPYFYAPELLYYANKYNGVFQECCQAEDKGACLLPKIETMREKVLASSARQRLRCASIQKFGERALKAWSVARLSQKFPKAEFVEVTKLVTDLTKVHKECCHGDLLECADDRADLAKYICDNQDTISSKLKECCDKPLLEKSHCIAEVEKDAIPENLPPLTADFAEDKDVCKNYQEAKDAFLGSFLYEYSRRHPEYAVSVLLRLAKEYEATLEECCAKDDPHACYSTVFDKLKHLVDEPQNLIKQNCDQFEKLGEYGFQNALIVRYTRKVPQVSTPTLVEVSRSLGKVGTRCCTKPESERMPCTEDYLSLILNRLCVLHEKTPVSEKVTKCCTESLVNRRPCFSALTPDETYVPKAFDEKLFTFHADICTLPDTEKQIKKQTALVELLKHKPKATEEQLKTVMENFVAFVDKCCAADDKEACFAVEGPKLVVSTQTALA
# measurement-protocol: Measurement of non-specific binding using BSA
# condition-notes: compound 10 μM, 0.25 mg/ml BSA, 30 min incubation
Field: label. Allowed values: Criterion met (FIBSA: fold increase = fluorescence intensity of probe bound to BSA / probe (free) < 1) or Criterion not met (FIBSA: fold increase = fluorescence intensity of probe bound to BSA / probe (free) >= 1).

Examples from the recorded data:
INSERT INTO measurements (molecule, system_under_test, group_label) VALUES
  ('COc1ccc2nc(/C=C/C=C/c3cccc(Cl)c3)ccc2c1 [Compound 15f]', 'bovine serum albumin (BSA) (Bos taurus)', 'Criterion not met'),
  ('COc1ccc2nc(/C=C/C=C/c3cccc([N+](=O)[O-])c3)ccc2c1 [Compound 15g]', 'bovine serum albumin (BSA) (Bos taurus)', 'Criterion not met'),
  ('COc1ccc2nc(/C=C/C(=O)c3ccc(C)cc3)ccc2c1 [Compound 13d]', 'bovine serum albumin (BSA) (Bos taurus)', 'Criterion not met'),
  ('COc1ccc2nc(/C=C/C(=O)c3ccc(Br)cc3)ccc2c1 [Compound 13e]', 'bovine serum albumin (BSA) (Bos taurus)', 'Criterion not met');

Query: Strictly below 1 in FIBSA: fold increase = fluorescence intensity of probe bound to BSA / probe (free)? COc1ccc2nc(/C=C/C=C/c3ccc([N+](=O)[O-])nc3)ccc2c1 [Compound 15e]
Reply: Criterion met

Query: Strictly below 1 in FIBSA: fold increase = fluorescence intensity of probe bound to BSA / probe (free)? CNc1ccc(/C=C/C=C/C(=O)c2ccc3cc(OC)ccc3n2)cc1 [Compound 16b]
Reply: Criterion not met

Query: Strictly below 1 in FIBSA: fold increase = fluorescence intensity of probe bound to BSA / probe (free)? COc1ccc2nc(/C=C/C=C/c3ccc(F)cc3F)ccc2c1 [Compound 15h]
Reply: Criterion met

Query: Strictly below 1 in FIBSA: fold increase = fluorescence intensity of probe bound to BSA / probe (free)? COc1ccc2nc(C(=O)/C=C/C=C/c3ccc(N(C)C)cc3)ccc2c1 [Compound 16c]
Reply: Criterion not met

Query: Strictly below 1 in FIBSA: fold increase = fluorescence intensity of probe bound to BSA / probe (free)? COc1ccc2nc(/C=C/c3ccncc3)ccc2c1 [Compound 14b]
Reply: Criterion met

###

Catalogue of Stokes shift readings, one per entry.
# measurement-protocol: Measurement of absorbance and fluorescence of synthesized compound in ethanol
# Assay type: physicochemical
# condition-notes: 10 μM in ethanol; difference between excitation and emission
Response body: numeric value in nm, unit text excluded.

INSERT INTO results (compound, recorded_number) VALUES
  ('COc1ccc2nc(/C=C/C=C/c3ccc(F)cc3F)ccc2c1 [Compound 15h]', 55),
  ('COc1ccc2nc(/C=C/C=C/c3ccc([N+](=O)[O-])nc3)ccc2c1 [Compound 15e]', 198),
  ('COc1ccc2nc(/C=C/C=C/c3cccc(Cl)c3)ccc2c1 [Compound 15f]', 55),
  ('CNc1ccc(/C=C/C=C/c2ccc3cc(OC)ccc3n2)cc1 [Compound 15b]', 202),
  ('COc1ccc2nc(/C=C/c3ccc(C(F)(F)F)cc3)ccc2c1 [Compound 14a]', 56),
  ('COc1ccc2nc(/C=C/C(=O)c3ccc(Br)cc3)ccc2c1 [Compound 13e]', 101),
  ('COc1ccc2nc(/C=C/C(=O)c3ccc(C)cc3)ccc2c1 [Compound 13d]', 140),
  ('COc1ccc2nc(C(=O)/C=C/C=C/c3ccc(N(C)CCO)cc3)ccc2c1 [Compound 16e]', 222);

Query: Read off the recorded Stokes shift for Fc1ccc(-c2ccc3c(c2)[nH]c2ccncc23)cn1 [Compound T807, reference compound]
Reply: 65

###

Catalogue of λem: Maximum emission wavelength readings, one per entry.
# measurement-protocol: Measurement of absorbance and fluorescence of synthesized compound in ethanol
# Assay type: physicochemical
# condition-notes: 10 μM in ethanol, average of three measurements
# Procedure: In order to investigate the optical properties of the newly synthesized compound in the present invention, the absorbance was measured using a V-730 UV-visible spectrophotometer manufactured by JASCO, and fluorescence was measured using a FlexStation 3 multi-mode microplate reader manufactured by Molecular Devices. Absorbance and fluorescence were measured three times at a concentration of 10 μM in ethanol, and the average thereof is shown in Table 1 below. […]
Response body: numeric value in nm, unit text excluded.

Look over these answered cases.
INSERT INTO results (molecule, metric, recorded_number) VALUES
  ('COc1ccc2nc(/C=C/C=C/c3ccc(N(C)C)cc3)ccc2c1 [Compound 15c]', 'λem: Maximum emission wavelength', 600),
  ('COc1ccc2nc(/C=C/C(=O)c3ccc(N(C)C)cc3)ccc2c1 [Compound 13a]', 'λem: Maximum emission wavelength', 601);

Next:
Query: Read off the recorded λem: Maximum emission wavelength for CNc1ccc(/C=C/C=C/c2ccc3cc(OC)ccc3n2)cc1 [Compound 15b]
Reply: 602
